Here the recorded Tmax is given for each entry.
- Experiment: Pharmacokinetic study in rats (plasma LC-MS/MS) after iv or oral VOC, oral VOC-P188 or oral VOC-β-CD
- Type: in vivo, Sprague Dawley rats
- Run conditions: male, Sprague-Dawley, rat, plasma, po, 120 mg/kg, VOC po 120 mg/kg, rat plasma, n = 6; read-out: Tmax
Readout label: Tmax (min)

>>> reported("CCCCC1OC(=O)C2=C1CCC=C2 (centres unmarked) [SA, senkyunolide A]")
11.4
>>> reported("CCCC[C@@H]1OC(=O)C2=CCCC[C@H]21 [NOL, Neocnidilide]")
10.8
>>> reported("CCC/C=C1\\OC(=O)C2=C1CCC=C2 [ZL, Z-ligustilide]")
13.2
>>> reported("CCCC[C@@H]1OC(=O)c2ccccc21 [NBP, N-butylphthalide, reference compound]")
28.2
>>> reported("CCC/C=C1\\OC(=O)c2ccccc21")
30

----------
- Experiment: Pharmacokinetic study in rats (plasma LC-MS/MS) after iv or oral VOC, oral VOC-P188 or oral VOC-β-CD
- Assay type: in vivo, Sprague Dawley rats
- Run conditions: male, Sprague-Dawley, rat, plasma, po, 120 mg/kg, VOC po vs VOC iv, rats; read-out: F1 (absolute bioavailability)
- Description: The intravenous injection solution was prepared by dissolving 0.15 g of VOC in 25 ml water containing 3 ml 10% Tween-80 as solubilizer. […] The plasma SA, NBP, NOL, ZL and BP concentrations were evaluated using the equation from the standard curves that were run with each batch of samples. The plasma concentration-time data were analyzed with the Drug and Statistics 2.0 software package to determine the pharmacokinetic parameters. […]
Here the recorded bioavailability is given for each entry.
Readout label: bioavailability

>>> reported("CCCCC1OC(=O)C2=C1CCC=C2 (stereo not drawn) [SA, senkyunolide A]")
"< 25%"
>>> reported("CCCC[C@@H]1OC(=O)c2ccccc21 [NBP, N-butylphthalide, reference compound]")
"< 25%"
>>> reported("CCCC[C@@H]1OC(=O)C2=CCCC[C@H]21 [NOL, Neocnidilide]")
"< 25%"

----------
- Experiment: Pharmacokinetic study in rats (plasma LC-MS/MS) after iv or oral VOC, oral VOC-P188 or oral VOC-β-CD
- Assay type: in vivo, Sprague Dawley rats
- Run conditions: male, Sprague-Dawley, rat, plasma, po, 120 mg/kg, VOC po 120 mg/kg, rat plasma, n = 6; read-out: MRT0-t
Readout label: MRT last

>>> reported("CCCC[C@@H]1OC(=O)c2ccccc21 [NBP, N-butylphthalide, reference compound]")
"2.7 h"
>>> reported("CCC/C=C1\\OC(=O)C2=C1CCC=C2 [ZL, Z-ligustilide]")
"3.94 h"
>>> reported("CCCCC1OC(=O)C2=C1CCC=C2 (centres unmarked) [SA, senkyunolide A]")
"4.19 h"
>>> reported("CCC/C=C1\\OC(=O)c2ccccc21")
"3.46 h"
>>> reported("CCCC[C@@H]1OC(=O)C2=CCCC[C@H]21 [NOL, Neocnidilide]")
"3.42 h"

----------
Here the recorded t1/2α is given for each entry.
- Experiment: Pharmacokinetic study in rats (plasma LC-MS/MS) after iv or oral VOC, oral VOC-P188 or oral VOC-β-CD
- Type: in vivo, Sprague Dawley rats
- Run conditions: VOC-P188 solid dispersion po, rat plasma, n = 6
- Method: The intravenous injection solution was prepared by dissolving 0.15 g of VOC in 25 ml water containing 3 ml 10% Tween-80 as solubilizer. […] The plasma SA, NBP, NOL, ZL and BP concentrations were evaluated using the equation from the standard curves that were run with each batch of samples. The plasma concentration-time data were analyzed with the Drug and Statistics 2.0 software package to determine the pharmacokinetic parameters. […]
Readout label: t1/2α

>>> reported("CCC/C=C1\\OC(=O)C2=C1CCC=C2 [ZL, Z-ligustilide]")
"4.40 ± 4.10^* h"
>>> reported("CCCC[C@@H]1OC(=O)c2ccccc21 [NBP, N-butylphthalide, reference compound]")
"2.82 ± 1.55^** h"
>>> reported("CCCC[C@@H]1OC(=O)C2=CCCC[C@H]21 [NOL, Neocnidilide]")
"4.21 ± 4.29^* h"
